Values were extracted from patent US10590140B2.

measuredOn: human α2δ-1 subunit of Cav2.2 calcium channel (Homo sapiens (Human), UniProt P54289)
Sequence (P54289 25-1103): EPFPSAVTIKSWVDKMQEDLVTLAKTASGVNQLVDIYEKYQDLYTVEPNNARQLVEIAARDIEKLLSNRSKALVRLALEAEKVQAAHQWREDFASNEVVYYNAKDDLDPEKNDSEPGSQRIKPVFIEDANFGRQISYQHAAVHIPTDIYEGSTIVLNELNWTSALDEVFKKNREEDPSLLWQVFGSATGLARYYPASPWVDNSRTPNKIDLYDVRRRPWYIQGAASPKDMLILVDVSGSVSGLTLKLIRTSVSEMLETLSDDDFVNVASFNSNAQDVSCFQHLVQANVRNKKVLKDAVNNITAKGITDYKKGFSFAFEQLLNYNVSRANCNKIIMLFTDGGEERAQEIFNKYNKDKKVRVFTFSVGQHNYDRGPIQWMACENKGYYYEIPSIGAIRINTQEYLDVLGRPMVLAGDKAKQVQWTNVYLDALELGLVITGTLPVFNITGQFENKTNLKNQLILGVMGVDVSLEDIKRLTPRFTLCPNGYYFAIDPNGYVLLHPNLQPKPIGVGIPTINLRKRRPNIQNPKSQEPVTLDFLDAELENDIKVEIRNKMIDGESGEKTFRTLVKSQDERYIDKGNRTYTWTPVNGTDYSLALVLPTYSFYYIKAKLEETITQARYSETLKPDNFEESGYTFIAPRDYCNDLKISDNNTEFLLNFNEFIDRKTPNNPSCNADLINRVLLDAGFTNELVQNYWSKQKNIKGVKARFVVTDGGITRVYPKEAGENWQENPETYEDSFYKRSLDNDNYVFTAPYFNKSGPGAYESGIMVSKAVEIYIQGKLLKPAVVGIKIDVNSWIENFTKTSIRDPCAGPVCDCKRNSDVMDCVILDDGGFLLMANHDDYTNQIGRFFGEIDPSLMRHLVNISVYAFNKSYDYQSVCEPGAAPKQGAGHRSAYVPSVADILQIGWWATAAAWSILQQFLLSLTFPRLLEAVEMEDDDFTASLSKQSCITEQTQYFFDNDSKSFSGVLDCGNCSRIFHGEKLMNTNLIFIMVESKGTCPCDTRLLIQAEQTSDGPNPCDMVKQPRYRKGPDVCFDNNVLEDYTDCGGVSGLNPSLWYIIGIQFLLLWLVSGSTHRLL
measurementNotes: Binding assay to human α2δ-1 subunit of Cav2.2 calcium channel ([3H]-Gabapentin)
conditionDetails: binding to α2δ-1, [3H]-Gabapentin; read-out: Ki (nM) α2δ-1
reportedProperty: Ki

Some molecules with recorded Ki:
Query: # value lookup — system human α2δ-1 subunit of Cav2.2 calcium channel (Homo sapiens (Human), UniProt P54289), readout Ki, item `CNCC[C@@H](OCc1cccc(N2CCN(C)c3nc(SC)ncc3C2=O)c1)c1cccs1`
Result: 100 to 500 nM

Query: Likewise for `CCNc1ncc2c(n1)N(C)CCN(c1cccc(O[C@@H](CCN(C)C(=O)OC(C)(C)C)c3cccs3)c1)C2=O` ?
Result: > 3000 nM

Query: Now the same for CNCCC(OCc1cccc(N2CCN(C)c3ccncc3C2=O)c1)c1ccccc1 (stereo not drawn)
Result: 500 to 3000 nM

Query: Queued: `CSc1ncc2c(n1)N(C)CCN(c1cccc(CO[C@@H](CCN(C)C(=O)OC(C)(C)C)c3ccccc3)c1)C2=O`
Result: > 3000 nM

Here is the next item to consider.
Query: # value lookup — system human α2δ-1 subunit of Cav2.2 calcium channel (Homo sapiens (Human), UniProt P54289), readout Ki, item `CN(CC[C@@H](OCc1cccc(N2CCN(C)c3nc(O)ncc3C2=O)c1)c1ccccc1)C(=O)OC(C)(C)C`
Result: > 3000 nM

====

measuredOn: human α2δ-1 subunit of Cav2.2 calcium channel (Homo sapiens (Human), UniProt P54289)
measurementNotes: Binding assay to human α2δ-1 subunit of Cav2.2 calcium channel ([3H]-Gabapentin)
conditionDetails: Table 2, dual compounds; [3H]-Gabapentin binding; read-out: Ki (nM) α2δ-1
reportedProperty: Ki

Solved entries (count: 2):
Query: Consider the molecule shown here: `CNCC[C@@H](OCc1cccc(N2CCN(C)c3nc(NC)ncc3C2=O)c1)c1ccccc1` What is its recorded Ki?
Result: 500 to 3000 nM

Query: Next up: CCNc1ncc2c(n1)N(C)CCN(Cc1ccc(OC(CCNC)c3ccccc3)cc1)C2=O (stereo not drawn)
Result: 500 to 3000 nM

Continue with the next molecule.
Query: Which Ki is reported for this molecule? CCNc1cc2c(cn1)C(=O)N(c1cccc(OC(CCNC)c3ccccc3)c1)CCN2C (stereo not drawn)
Result: 500 to 3000 nM

====

measuredOn: human α2δ-1 subunit of Cav2.2 calcium channel (Homo sapiens (Human), UniProt P54289)
measurementNotes: Binding assay to human α2δ-1 subunit of Cav2.2 calcium channel ([3H]-Gabapentin)
conditionDetails: Table 2, dual compounds; [3H]-Gabapentin binding; read-out: Ki (nM) α2δ-1
reportedProperty: Ki

Query: Requested read-out: Ki. Entry: `CCNc1ncc2c(n1)N(C)CCN(c1cccc(CO[C@@H](CCN(C)C)c3ccccc3)c1)C2=O`
Result: 500 to 3000 nM

Query: Next up: `CCNc1ncc2c(n1)N(C)CCN(c1cccc(CO[C@H](CCNC)c3cccs3)c1)C2=O`
Result: 100 to 500 nM

====

measuredOn: human α2δ-1 subunit of Cav2.2 calcium channel (Homo sapiens (Human), UniProt P54289)
measurementNotes: Binding assay to human α2δ-1 subunit of Cav2.2 calcium channel ([3H]-Gabapentin)
conditionDetails: binding to α2δ-1, [3H]-Gabapentin; read-out: Ki (nM) α2δ-1
reportedProperty: Ki

Take a look at these entries with their results.
Query: Query (compound): CCNc1ncc2c(n1)N(C)CCN(Cc1ccc(OC(CNC)c3ccccc3)cc1)C2=O (stereo not shown) ; field requested: Ki
Result: > 3000 nM

Query: And the next one, `CNCC[C@@H](Oc1ccc(CN2CCN(C)c3ncncc3C2=O)cc1)c1ccccc1` ?
Result: > 3000 nM

Query: Here is the next compound: `CNCC[C@H](Oc1ccc(CN2CCN(C)c3c(F)cncc3C2=O)cc1)c1cccs1`
Result: 100 to 500 nM

Query: Next compound: `CCNc1ncc2c(n1)N(C)CCN(Cc1ccc(O[C@H](CCNC)c3ccccc3)cc1)C2=O`
Result: 500 to 3000 nM

Query: Follow-up entry: `CCNc1ncc2c(n1)N(C)CCN(Cc1ccc(CN(C)C(=O)OC(C)(C)C)cc1)C2=O`
Result: > 3000 nM

---
Query: Fill in the blank: the reported Ki of CNCCC(OCc1ccccc1CN1CCN(C)c2nc(SC)ncc2C1=O)c1ccccc1 (stereo not shown) is ____.
Result: > 3000 nM

Query: Now consider CCNc1ncc2c(n1)N(C)CCN(c1cccc(COC(C)CCNC)c1)C2=O (stereo not shown) and answer again.
Result: 500 to 3000 nM
